Sourced from patent US8242118B2

Where a name gives a salt, the structure may show the parent alone.
MEASURE_NAME: melting point (°C)

COMPOUND	melting point [°C]
Cc1ccc(Oc2ccc([N+](=O)[O-])cc2S(=O)(=O)N2CCNCC2)cn1.Cl	237

[A] Cc1cc(C)cc(Oc2cc([N+](=O)[O-])ccc2S(=O)(=O)N2CCNCC2)c1 (as salt: hydrochloride)
[B] Cl.O=S(=O)(c1cc(F)ccc1Oc1cc(Cl)cc(Cl)c1)N1CCNCC1
Query: Which is greater in melting point, the first item A or the second item B ? Could you answer with the label of the item you picked?
Result: A
(A: 284 °C, B: 145 °C)

----------
Reported pIC50 values for the following compounds.
ASSAYED_TARGET: Human CCR3 (Homo sapiens, UniProt P51677)
Construct: The cloned CCR3 cDNA was constructed with pcDNA3 vector and transfected into a IC562 cell line; expressed in transfected cells
Sequence (P51677 whole entry): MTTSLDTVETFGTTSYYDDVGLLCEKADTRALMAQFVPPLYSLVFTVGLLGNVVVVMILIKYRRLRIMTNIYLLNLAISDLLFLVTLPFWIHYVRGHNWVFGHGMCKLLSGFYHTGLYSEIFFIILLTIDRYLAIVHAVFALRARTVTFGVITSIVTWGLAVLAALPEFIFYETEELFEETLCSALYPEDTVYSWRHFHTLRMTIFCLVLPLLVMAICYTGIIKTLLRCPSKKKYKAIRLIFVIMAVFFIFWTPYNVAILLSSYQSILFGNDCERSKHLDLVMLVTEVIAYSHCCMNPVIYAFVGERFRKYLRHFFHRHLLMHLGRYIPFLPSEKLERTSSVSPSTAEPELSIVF
ASSAY_OVERVIEW: Receptor binding assay (RBA), [125I]-eotaxin
MEASUREMENT_CONDITIONS: human CCR3-transformed K562 cells, 0.1 nM [125I]-eotaxin; compounds of about 40 to 90% purity; read-out: Activity grade RBA (IC50 class)
pIC50: −log10 of the molar value.

SMI	ASSAYED_TARGET	pIC50
Cl.O=[N+]([O-])c1ccc(Oc2cc(Cl)cc(Cl)c2Cl)c(S(=O)(=O)N2CCNCC2)c1	Human CCR3 (Homo sapiens, UniProt P51677)	> 6.00
N[C@H]1CCN(S(=O)(=O)c2cc([N+](=O)[O-])ccc2Sc2cc(Cl)cc(Cl)c2)C1	Human CCR3 (Homo sapiens, UniProt P51677)	> 6.00

Query: Determine its reported pIC50: Cc1cc(C)cc(Oc2cc(C)c(N)cc2S(=O)(=O)N2CCNCC2)c1.Cl.Cl
Result: < 5.00

Query: Determine its reported pIC50: Cl.O=[N+]([O-])c1ccc(Oc2cccc(C(F)(F)F)c2)c(S(=O)(=O)N2CCNCC2)c1
Result: > 6.00

Query: Determine its reported pIC50: Cc1cc(C)cc(Oc2ccc([N+](=O)[O-])cc2S(=O)(=O)N2CCN(C(=O)OC(C)(C)C)CC2)c1
Result: < 5.00

Query: Determine its reported pIC50: CCN1CCN(S(=O)(=O)c2cc([N+](=O)[O-])ccc2Oc2cc(C)cc(C)c2)CC1
Result: > 6.00

Query: Determine its reported pIC50: Cc1cc(C)cc(Oc2ccc(S(C)(=O)=O)cc2S(=O)(=O)N2CCNCC2)c1.Cl
Result: 5.00 to 6.00

Query: Determine its reported pIC50: Cl.O=[N+]([O-])c1ccc(Oc2cc(Cl)cc(Cl)c2F)c(S(=O)(=O)N2CCNCC2)c1
Result: > 6.00

----------
Counter-ions that a name gives are not always drawn.
MEASURE_NAME: melting point

MOLECULE	MEASURE_NAME	RESULT
CCC(C)N1CCN(S(=O)(=O)c2cc([N+](=O)[O-])ccc2Oc2cc(C)cc(C)c2)CC1 (stereo not drawn) [Example 4-16]	melting point	134 to 135 °C

Query: Determine its reported melting point: N#Cc1ccc([S+]([O-])c2cc(Cl)cc(Cl)c2)c(S(=O)(=O)N2CCNCC2)c1 (stereo not drawn) (as salt: hydrochloride) [Example 19-1]
Result: 219 °C

Query: Determine its reported melting point: O=[N+]([O-])c1ccc(Oc2cc(Cl)cc(Cl)c2)c(S(=O)(=O)N2CCC(N3CCCC3)CC2)c1 [Example 4-1]
Result: 217 to 218 °C

Query: Determine its reported melting point: CSCCCN1CCN(S(=O)(=O)c2cc(C#N)ccc2Sc2cc(Cl)cc(Cl)c2)CC1 [Example 17-2]
Result: 124 °C

Query: Determine its reported melting point: CCN1CCN(S(=O)(=O)c2cc(Cl)ccc2Oc2cc(C)cc(C)c2)CC1 [Example 5-4]
Result: 120 to 122 °C

Query: Determine its reported melting point: N#Cc1ccc(Oc2cc(Cl)cc(Cl)c2)c(S(=O)(=O)N2C[C@H]3CCCN[C@H]3C2)c1 [Example 13-6]
Result: 164 to 165 °C

Query: Determine its reported melting point: CN(c1cccnc1)S(=O)(=O)c1cc(C#N)ccc1Oc1cc(Cl)cc(Cl)c1.Cl [Example 13-10]
Result: 104 °C

Query: Determine its reported melting point: Cl.O=[N+]([O-])c1ccc(Oc2cccc(F)c2)c(S(=O)(=O)N2CCNCC2)c1 [Example 1-15]
Result: 227 to 229 °C

Query: Determine its reported melting point: COc1ccc(Oc2cc(C)cc(C)c2)c(S(=O)(=O)N2CCNCC2)c1 (as salt: hydrochloride) [Example 6-2]
Result: 175 to 177 °C

Query: Determine its reported melting point: N#Cc1ccc(Oc2cc(Cl)cc(Cl)c2)c(S(=O)(=O)N2C[C@@H]3CCCN[C@@H]3C2)c1 [Example 13-5]
Result: 163 to 165 °C
